pIC50 overview
# assay_system: various mutants of kinase EGFR (BaF3 cell lines stably transfected with kinase) (Homo sapiens, UniProt P00533, L858R)
# Construct: expressed in transfected cells; host or cells: BaF3
# Sequence (P00533 25-1210 L858R): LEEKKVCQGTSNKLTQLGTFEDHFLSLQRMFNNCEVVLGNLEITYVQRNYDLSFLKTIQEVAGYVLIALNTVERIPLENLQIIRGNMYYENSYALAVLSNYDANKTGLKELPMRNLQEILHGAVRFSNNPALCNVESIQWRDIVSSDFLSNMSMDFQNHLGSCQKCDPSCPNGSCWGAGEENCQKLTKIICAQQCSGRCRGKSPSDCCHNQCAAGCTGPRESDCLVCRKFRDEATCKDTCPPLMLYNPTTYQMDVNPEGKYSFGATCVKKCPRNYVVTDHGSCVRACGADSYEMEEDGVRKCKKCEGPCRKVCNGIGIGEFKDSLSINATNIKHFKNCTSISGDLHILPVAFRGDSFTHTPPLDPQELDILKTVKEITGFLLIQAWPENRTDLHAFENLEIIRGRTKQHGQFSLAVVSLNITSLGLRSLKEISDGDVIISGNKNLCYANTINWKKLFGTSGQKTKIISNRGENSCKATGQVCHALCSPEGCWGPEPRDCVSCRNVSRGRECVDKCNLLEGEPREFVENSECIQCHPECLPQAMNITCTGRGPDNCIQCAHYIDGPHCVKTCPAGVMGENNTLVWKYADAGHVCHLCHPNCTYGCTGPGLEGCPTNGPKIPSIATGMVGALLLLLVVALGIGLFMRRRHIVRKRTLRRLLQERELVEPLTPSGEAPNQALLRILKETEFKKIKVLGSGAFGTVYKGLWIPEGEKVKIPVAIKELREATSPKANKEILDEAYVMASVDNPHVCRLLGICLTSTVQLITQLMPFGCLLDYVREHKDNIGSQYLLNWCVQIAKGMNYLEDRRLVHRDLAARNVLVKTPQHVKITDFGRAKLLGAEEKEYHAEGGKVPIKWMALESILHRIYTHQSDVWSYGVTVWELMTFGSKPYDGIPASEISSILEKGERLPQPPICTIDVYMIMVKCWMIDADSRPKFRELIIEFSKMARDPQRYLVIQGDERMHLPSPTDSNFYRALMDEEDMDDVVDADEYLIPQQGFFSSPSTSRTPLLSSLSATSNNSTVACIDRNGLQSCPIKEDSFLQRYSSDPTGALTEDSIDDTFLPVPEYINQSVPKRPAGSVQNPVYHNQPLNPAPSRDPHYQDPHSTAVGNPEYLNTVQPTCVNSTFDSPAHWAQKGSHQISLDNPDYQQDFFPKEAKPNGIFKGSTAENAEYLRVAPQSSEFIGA
# test_protocol: Growth inhibitory activity of compounds on BaF3 cell lines stably transfected with kinase (MTS, 48 h)
# Assay type: cell-based
# protocol_conditions: BaF3 cells stably transfected with EGFR L858R, read-out: IC50, growth inhibition, L858R
pIC50: −log10 of the molar value.

Reference set (3 entries):
compound: CCc1cc(Nc2ncc(F)c(Nc3ccc4nccnc4c3N(C)S(=O)(=O)C3CC3)n2)c(OC)cc1N1CCC(N2CCN(C)CC2)CC1
test_value: ≥ 7.30

compound: COc1cc(N2CCC(N3CCN(C)CC3)CC2)c(CC2CC2)cc1Nc1ncc(Cl)c(Nc2ccc3nccnc3c2N(C)S(C)(=O)=O)n1
test_value: ≥ 7.30

compound: COc1cc(N2CCC(N3CCN(C)CC3)CC2)ccc1Nc1ncc(Cl)c(Nc2ccc3nccnc3c2N(C)S(=O)(=O)C2CC2)n1
test_value: 6.30 to 7.30

Could you please provide reported pIC50 for COc1cc(N2CCC(N(C)C)CC2)c(C)cc1Nc1ncc([N+](=O)[O-])c(Nc2ccc3nccnc3c2N(C)S(C)(=O)=O)n1 ? Thanks! 6.30 to 7.30
